Where these numbers come from: ChEMBL document CHEMBL1154872

Reported IC50 values, Epidermal growth factor receptor (Homo sapiens).
value-kind: IC50

{"compound": "CC1=C(C(=O)Nc2cccc([N+](=O)[O-])c2)C(c2ccc(O)cc2O)NC(Nc2ccc(S(=O)(=O)Nc3nc(C)cc(C)n3)cc2)=N1 (centres undefined)", "value-kind": "IC50", "reading": "79.8 µM"}
{"compound": "CC1=C(C(=O)Nc2cccc([N+](=O)[O-])c2)C(c2ccc(O)cc2O)NC(Nc2ccc([N+](=O)[O-])cc2Cl)=N1 (centres undefined)", "value-kind": "IC50", "reading": "> 100 µM"}
{"compound": "CC1=C(C(=O)Nc2cccc([N+](=O)[O-])c2)C(c2ccc(O)cc2O)NC(SCc2ccccc2)=N1 (centres undefined)", "value-kind": "IC50", "reading": "55.6 µM"}
{"compound": "CC1=C(C(=O)Nc2ccc(C)cc2)C(c2ccc(O)cc2O)NC(Nc2ccc([N+](=O)[O-])cc2Cl)=N1 (centres undefined)", "value-kind": "IC50", "reading": "60.9 µM"}
{"compound": "CC1=C(C(=O)Nc2cccc([N+](=O)[O-])c2)C(c2ccc(O)cc2O)NC(Nc2ccc(S(=O)(=O)Nc3cc(C)on3)cc2)=N1 (centres undefined)", "value-kind": "IC50", "reading": "> 100 µM"}
{"compound": "Cc1nc(S(=O)(=O)Cc2ccccc2)nc(-c2ccc(O)cc2O)c1C(=O)Nc1cccc([N+](=O)[O-])c1", "value-kind": "IC50", "reading": "> 100 µM"}
{"compound": "CC1=C(C(=O)Nc2cccc([N+](=O)[O-])c2)C(c2ccc(O)cc2O)NC(N/N=C/c2cccs2)=N1 (centres undefined)", "value-kind": "IC50", "reading": "> 100 µM"}
{"compound": "CC1=C(C(=O)Nc2cccc([N+](=O)[O-])c2)C(c2ccc(O)cc2O)NC(NN2C(=O)/C(=C\\c3ccccc3)SC2=S)=N1 (centres undefined)", "value-kind": "IC50", "reading": "> 100 µM"}
{"compound": "CC1=C(C(=O)Nc2cccc([N+](=O)[O-])c2)C(c2ccc(O)cc2O)NC(NN2C(=O)/C(=C\\c3cccs3)SC2=S)=N1 (centres undefined)", "value-kind": "IC50", "reading": "80.6 µM"}

----------
# key: entry, value: log10 of IC50
measured-on: Cyclin-dependent kinase 2/cyclin A (Homo sapiens, UniProt P24941)
assay: Inhibition of human recombinant CDK2/cyclin A expressed in baculovirus-infected insect Sf21 cells after 10 mins
value-kind: log10 of IC50 (log10 of the value in nM)

{"compound": "Cc1nc(S(=O)(=O)Cc2ccccc2)nc(-c2ccc(O)cc2O)c1C(=O)Nc1cccc([N+](=O)[O-])c1", "measured-on": "Cyclin-dependent kinase 2/cyclin A (Homo sapiens, UniProt P24941)", "log10 of IC50": 2.95}
{"compound": "CC1=C(C(=O)Nc2ccc(C)cc2)C(c2ccc(O)cc2O)NC(SCc2ccccc2)=N1 (stereo not drawn)", "measured-on": "Cyclin-dependent kinase 2/cyclin A (Homo sapiens, UniProt P24941)", "log10 of IC50": 4.40}
{"compound": "CC1=C(C(=O)Nc2cccc([N+](=O)[O-])c2)C(c2ccc(O)cc2O)NC(NN2C(=O)/C(=C\\c3ccco3)SC2=S)=N1 (stereo not drawn)", "measured-on": "Cyclin-dependent kinase 2/cyclin A (Homo sapiens, UniProt P24941)", "log10 of IC50": 2.60}
{"compound": "CC1=C(C(=O)Nc2cccc([N+](=O)[O-])c2)C(c2ccc(O)cc2O)NC(SCc2ccccc2)=N1 (stereo not drawn)", "measured-on": "Cyclin-dependent kinase 2/cyclin A (Homo sapiens, UniProt P24941)", "log10 of IC50": 4.39}
{"compound": "CC[C@H](CO)Nc1nc(NCc2ccccc2)c2c(n1)N(C(C)C)CN2", "measured-on": "Cyclin-dependent kinase 2/cyclin A (Homo sapiens, UniProt P24941)", "log10 of IC50": 2.70}
{"compound": "CC1=C(C(=O)Nc2cccc([N+](=O)[O-])c2)C(c2ccc(O)cc2O)NC(Nc2ccc(S(=O)(=O)Nc3cc(C)on3)cc2)=N1 (stereo not drawn)", "measured-on": "Cyclin-dependent kinase 2/cyclin A (Homo sapiens, UniProt P24941)", "log10 of IC50": 2.95}
{"compound": "CC1=C(C(=O)Nc2cccc([N+](=O)[O-])c2)C(c2ccc(O)cc2O)NC(Nc2ccc(S(=O)(=O)Nc3nc(C)cc(C)n3)cc2)=N1 (stereo not drawn)", "measured-on": "Cyclin-dependent kinase 2/cyclin A (Homo sapiens, UniProt P24941)", "log10 of IC50": 4.06}
